# experimental target: T1, ABCB5 linear epitope peptide (3rd extracellular loop) (human)
# T1 construct: Synthetic linear peptide, used at 20 uM in the ELISA; 104; also called ABCB5 peptide; linear peptide
# T1 peptide: RFGAYLIQAGRMTPEG
# assay remarks: linear peptide ELISA, BSA-conjugated peptides (20 µM), OD 450 nm (mAb-Iso (InVivoPlus+))
endpoint: binding result

>>> obs_value("ABCB5-Ab43 (antibody, V domains shown) VH: QVQLVQSGAEVKKPGASVKVSCKASGYTFTSYYMHWVRQSPGQGLEWMGIINPSGGSTSYAQKFQGRVTMTRDTSTSTVYMELSSLRSEDTAVYYCARDQAVTGTAYYYYYGMDVWGQGTTVTVSS VL: EIVLTQSPGTLSLSPGERATLSCRASQSVNSKYLAWYQQKPGQAPRLLIYGTSSRATGIPDSFSGSGSGTDFTLTISRLEPEDFAVYYCQQFGSSPLTFGGGTKVEIK")
"binds"
